- TARGET_OR_TEST_SYSTEM: UniProt:Q96RJ0
- Sequence (Q96RJ0 whole entry): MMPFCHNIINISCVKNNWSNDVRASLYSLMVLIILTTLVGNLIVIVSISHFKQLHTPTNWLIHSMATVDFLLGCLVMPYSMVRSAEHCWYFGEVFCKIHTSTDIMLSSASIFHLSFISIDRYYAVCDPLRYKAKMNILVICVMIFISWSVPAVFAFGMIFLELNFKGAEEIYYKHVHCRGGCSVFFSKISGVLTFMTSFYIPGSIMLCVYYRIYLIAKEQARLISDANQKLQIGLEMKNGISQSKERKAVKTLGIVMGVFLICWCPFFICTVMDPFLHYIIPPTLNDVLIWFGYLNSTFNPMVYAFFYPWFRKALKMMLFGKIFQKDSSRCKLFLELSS
- PROTOCOL_DETAILS: cAMP functional assay in HEK293 cells expressing human TAAR1
- Format: cell-based
- TEST_PARAMETERS: cAMP, HEK293 cells expressing human TAAR1; listed as example 9; read-out: hTAAR1 EC50
pEC50: −log10 of the molar value.
MEASURED_METRIC: pEC50

- MOLECULE: "O=C(Nc1ccc([C@H]2CNCCO2)cc1)c1cnc(Cl)c(Cl)c1 [Example 9]"
  MEASURED_METRIC: "pEC50"
  MEASURED_VALUE: 6.84

* * *

Examples of compounds with documented Ki follow.
- TARGET_OR_TEST_SYSTEM: human DAT (Homo sapiens (Human), UniProt Q01959)
- Sequence (Q01959 whole entry): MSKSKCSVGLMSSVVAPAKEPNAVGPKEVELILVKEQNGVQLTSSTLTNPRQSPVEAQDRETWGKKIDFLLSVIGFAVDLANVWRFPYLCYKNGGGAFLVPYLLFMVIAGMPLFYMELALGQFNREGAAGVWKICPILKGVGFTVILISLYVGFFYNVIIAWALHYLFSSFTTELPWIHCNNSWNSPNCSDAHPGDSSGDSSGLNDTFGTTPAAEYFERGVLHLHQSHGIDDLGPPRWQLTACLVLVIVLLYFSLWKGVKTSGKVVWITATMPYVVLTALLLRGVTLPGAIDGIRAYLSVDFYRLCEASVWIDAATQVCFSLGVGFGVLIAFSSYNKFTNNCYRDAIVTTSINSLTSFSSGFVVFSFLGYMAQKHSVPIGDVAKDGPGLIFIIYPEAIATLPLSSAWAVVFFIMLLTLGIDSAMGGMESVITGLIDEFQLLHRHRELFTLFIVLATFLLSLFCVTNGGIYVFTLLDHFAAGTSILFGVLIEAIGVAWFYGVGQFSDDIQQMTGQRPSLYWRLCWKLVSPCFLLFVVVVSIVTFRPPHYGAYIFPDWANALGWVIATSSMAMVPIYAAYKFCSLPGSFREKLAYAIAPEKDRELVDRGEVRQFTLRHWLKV
- PROTOCOL_DETAILS: Binding to dopamine transporter (DAT) in vitro, [3H]-WIN35,428 SPA
- TEST_PARAMETERS: [3H]-WIN35,428 radioligand
MEASURED_METRIC: Ki (µM)

- COMPOUND: "O=C(Nc1ccc([C@H]2CNCCO2)cc1)c1cnc(-c2ccccc2)s1 [Example 6]"
  TARGET_OR_TEST_SYSTEM: "human DAT (Homo sapiens (Human), UniProt Q01959)"
  MEASURED_METRIC: "Ki"
  MEASURED_VALUE: 5.93
- COMPOUND: "CCc1[nH]nc(C(=O)Nc2ccc([C@H]3CNCCO3)cc2)c1C [Example 1]"
  TARGET_OR_TEST_SYSTEM: "human DAT (Homo sapiens (Human), UniProt Q01959)"
  MEASURED_METRIC: "Ki"
  MEASURED_VALUE: 27.5
- COMPOUND: "Cc1cc(C(=O)Nc2ccc([C@H]3CNCCO3)cc2)cc(Cl)n1 [Example 14]"
  TARGET_OR_TEST_SYSTEM: "human DAT (Homo sapiens (Human), UniProt Q01959)"
  MEASURED_METRIC: "Ki"
  MEASURED_VALUE: 7.32
- COMPOUND: "N#Cc1ccc(C(=O)Nc2ccc([C@H]3CNCCO3)cc2)cn1 [Example 10]"
  TARGET_OR_TEST_SYSTEM: "human DAT (Homo sapiens (Human), UniProt Q01959)"
  MEASURED_METRIC: "Ki"
  MEASURED_VALUE: 11.3
- COMPOUND: "O=C(Nc1ccc([C@H]2CNCCO2)cc1)c1ccc(Cl)nc1 [Example 4]"
  TARGET_OR_TEST_SYSTEM: "human DAT (Homo sapiens (Human), UniProt Q01959)"
  MEASURED_METRIC: "Ki"
  MEASURED_VALUE: 2.5
- COMPOUND: "O=C(Nc1ccc([C@H]2CNCCO2)cc1)c1ccc(Cl)cn1 [Example 12]"
  TARGET_OR_TEST_SYSTEM: "human DAT (Homo sapiens (Human), UniProt Q01959)"
  MEASURED_METRIC: "Ki"
  MEASURED_VALUE: 1.78
- COMPOUND: "Cc1cc(C(=O)Nc2ccc([C@H]3CNCCO3)cc2)ccn1 [Example 17]"
  TARGET_OR_TEST_SYSTEM: "human DAT (Homo sapiens (Human), UniProt Q01959)"
  MEASURED_METRIC: "Ki"
  MEASURED_VALUE: 10.3
- COMPOUND: "O=C(Nc1ccc([C@H]2CNCCO2)cc1)c1ccc(C(F)(F)F)nc1 [Example 11]"
  TARGET_OR_TEST_SYSTEM: "human DAT (Homo sapiens (Human), UniProt Q01959)"
  MEASURED_METRIC: "Ki"
  MEASURED_VALUE: 2.33
- COMPOUND: "Cc1nc(C(=O)Nc2ccc([C@H]3CNCCO3)cc2)cs1 [Example 19]"
  TARGET_OR_TEST_SYSTEM: "human DAT (Homo sapiens (Human), UniProt Q01959)"
  MEASURED_METRIC: "Ki"
  MEASURED_VALUE: 21.9

* * *

- TARGET_OR_TEST_SYSTEM: UniProt Q96RJ0
- PROTOCOL_DETAILS: cAMP functional assay in HEK293 cells expressing human TAAR1
- Format: cell-based
- TEST_PARAMETERS: cAMP, HEK293 cells expressing human TAAR1; listed as example 10; read-out: hTAAR1 EC50
pEC50: −log10 of the molar value.

- MOLECULE_SMILES: "N#Cc1ccc(C(=O)Nc2ccc([C@H]3CNCCO3)cc2)cn1"
  pEC50: 6.74

* * *

- TARGET_OR_TEST_SYSTEM: human DAT (Homo sapiens (Human), UniProt Q01959)
- PROTOCOL_DETAILS: Binding to dopamine transporter (DAT) in vitro, [3H]-WIN35,428 SPA
- TEST_PARAMETERS: [3H]-WIN35,428 radioligand; listed as example 5
- Experimental: Binding to dopamine transporter (DAT) in vitro. Human embryonic kidney (HEK) 293 cells (Invitrogen, Zug, Switzerland) stably transfected with human DAT were cultured. The cells were collected and washed three times with phosphate-buffered saline (PBS). The pellets were frozen at −80° C. […] Switzerland) at 10000 rotations per minute (rpm) for 15 s, the homogenates were centrifuged at 48000×g for 30 min at 4° C. […] The assay plates were then counted in the PVT SPA counting mode of a Packard Topcount. […]

- MOLECULE_SMILES: "O=C(Nc1ccc([C@H]2CNCCO2)cc1)c1ccnc(Cl)c1"
  UNIT_OF_MEASURE: "nM"
  Ki: 1500

* * *

- TARGET_OR_TEST_SYSTEM: hERG potassium channel (Homo sapiens (Human), UniProt Q12809)
- Sequence (Q12809 whole entry): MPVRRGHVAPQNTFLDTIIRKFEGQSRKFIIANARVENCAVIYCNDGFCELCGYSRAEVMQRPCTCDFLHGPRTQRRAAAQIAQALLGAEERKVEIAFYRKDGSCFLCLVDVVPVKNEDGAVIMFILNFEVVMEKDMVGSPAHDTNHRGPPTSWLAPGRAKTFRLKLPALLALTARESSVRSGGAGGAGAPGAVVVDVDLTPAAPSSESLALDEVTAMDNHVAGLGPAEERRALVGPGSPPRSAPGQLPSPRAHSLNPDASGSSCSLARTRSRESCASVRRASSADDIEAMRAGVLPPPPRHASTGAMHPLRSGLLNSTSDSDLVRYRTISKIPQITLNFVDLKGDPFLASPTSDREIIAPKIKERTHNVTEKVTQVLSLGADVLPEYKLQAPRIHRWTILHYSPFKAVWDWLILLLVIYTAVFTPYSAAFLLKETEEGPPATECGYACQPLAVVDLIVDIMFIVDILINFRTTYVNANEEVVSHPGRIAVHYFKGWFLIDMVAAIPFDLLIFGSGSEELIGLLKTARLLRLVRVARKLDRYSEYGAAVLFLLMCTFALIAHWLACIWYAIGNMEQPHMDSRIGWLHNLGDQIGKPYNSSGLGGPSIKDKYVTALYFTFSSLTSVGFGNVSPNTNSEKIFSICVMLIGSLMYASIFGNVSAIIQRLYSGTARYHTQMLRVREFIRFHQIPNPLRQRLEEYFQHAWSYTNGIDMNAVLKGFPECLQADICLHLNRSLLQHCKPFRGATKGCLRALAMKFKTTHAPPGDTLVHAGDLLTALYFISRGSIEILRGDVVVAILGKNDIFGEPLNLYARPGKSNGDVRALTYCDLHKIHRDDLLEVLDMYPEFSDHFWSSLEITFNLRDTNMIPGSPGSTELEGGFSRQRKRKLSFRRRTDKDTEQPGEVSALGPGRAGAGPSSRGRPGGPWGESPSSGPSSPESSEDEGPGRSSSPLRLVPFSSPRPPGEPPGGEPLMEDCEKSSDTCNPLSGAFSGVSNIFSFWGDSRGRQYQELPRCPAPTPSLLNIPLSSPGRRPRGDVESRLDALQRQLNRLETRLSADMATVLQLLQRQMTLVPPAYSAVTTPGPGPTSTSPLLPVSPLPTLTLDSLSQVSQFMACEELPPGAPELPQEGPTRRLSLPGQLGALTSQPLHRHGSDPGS
- PROTOCOL_DETAILS: hERG whole-cell patch-clamp in stably transfected CHO cells
- Assay type: cell-based
- TEST_PARAMETERS: human, CHO cells stably expressing hERG, pH 7.4; hERG IC20 / hTAAR1 EC50; read-out: hERG selectivity ratio versus hTAAR1 EC50

- MOLECULE: "O=C(Nc1ccc([C@H]2CNCCO2)cc1)c1cc(Cl)nc(Cl)c1 [Example 7]"
  selectivity ratio: 43
- MOLECULE: "Cc1nc(C(=O)Nc2ccc([C@H]3CNCCO3)cc2)cs1 [Example 19]"
  selectivity ratio: 8
- MOLECULE: "O=C(Nc1ccc([C@H]2CNCCO2)cc1)c1cncc(Cl)c1 [Example 13]"
  selectivity ratio: 23
- MOLECULE: "O=C(Nc1ccc([C@H]2CNCCO2)cc1)c1ccc(Cl)cn1 [Example 12]"
  selectivity ratio: 15
- MOLECULE: "Cc1c(C(=O)Nc2ccc([C@H]3CNCCO3)cc2)n[nH]c1-c1ccccc1 [Example 8]"
  selectivity ratio: 28
- MOLECULE: "O=C(Nc1ccc([C@H]2CNCCO2)cc1)c1ccn(-c2ccccc2)n1 [Example 20]"
  selectivity ratio: 1
- MOLECULE: "O=C(Nc1ccc([C@H]2CNCCO2)cc1)c1ccc(OCC(F)(F)F)nc1 [Example 3]"
  selectivity ratio: 52
- MOLECULE: "N#Cc1ccc(C(=O)Nc2ccc([C@H]3CNCCO3)cc2)cn1 [Example 10]"
  selectivity ratio: 31
- MOLECULE: "O=C(Nc1ccc([C@H]2CNCCO2)cc1)c1coc(-c2ccccc2)n1 [Example 15]"
  selectivity ratio: 4
- MOLECULE: "O=C(Nc1ccc([C@H]2CNCCO2)cc1)c1csc(-c2ccccc2)n1 [Example 16]"
  selectivity ratio: 5

* * *

- TARGET_OR_TEST_SYSTEM: hERG potassium channel (Homo sapiens (Human), UniProt Q12809)
- PROTOCOL_DETAILS: hERG whole-cell patch-clamp in stably transfected CHO cells
- Assay type: cell-based
- TEST_PARAMETERS: human, CHO cells stably expressing hERG, pH 7.4, estimated based on the IC50 value
Examples of compounds with documented IC20 follow.

- MOLECULE_SMILES: "O=C(Nc1ccc([C@H]2CNCCO2)cc1)c1cc(Cl)nc(Cl)c1"
  IC20: "3.57 µM"
- MOLECULE_SMILES: "O=C(Nc1ccc([C@H]2CNCCO2)cc1)c1ccnc(Cl)c1"
  IC20: "22.2 µM"
- MOLECULE_SMILES: "Cc1cc(C(=O)Nc2ccc([C@H]3CNCCO3)cc2)cc(Cl)n1"
  IC20: "21.6 µM"
- MOLECULE_SMILES: "Cc1cc(C(=O)Nc2ccc([C@H]3CNCCO3)cc2)ccn1"
  IC20: "130 µM"
- MOLECULE_SMILES: "Cc1cc(C(=O)Nc2ccc([C@H]3CNCCO3)cc2)cc(C)n1"
  IC20: "147 µM"
- MOLECULE_SMILES: "O=C(Nc1ccc([C@H]2CNCCO2)cc1)c1ccc(Cl)cn1"
  IC20: "3.21 µM"
- MOLECULE_SMILES: "O=C(Nc1ccc([C@H]2CNCCO2)cc1)c1ccc(Cl)nc1"
  IC20: "12.4 µM"
